Origin of measurements: patent US10112937B2

EXPERIMENTAL_SYSTEM: human P2X7 (Homo sapiens (Human))
Sequence (Q99572 whole entry): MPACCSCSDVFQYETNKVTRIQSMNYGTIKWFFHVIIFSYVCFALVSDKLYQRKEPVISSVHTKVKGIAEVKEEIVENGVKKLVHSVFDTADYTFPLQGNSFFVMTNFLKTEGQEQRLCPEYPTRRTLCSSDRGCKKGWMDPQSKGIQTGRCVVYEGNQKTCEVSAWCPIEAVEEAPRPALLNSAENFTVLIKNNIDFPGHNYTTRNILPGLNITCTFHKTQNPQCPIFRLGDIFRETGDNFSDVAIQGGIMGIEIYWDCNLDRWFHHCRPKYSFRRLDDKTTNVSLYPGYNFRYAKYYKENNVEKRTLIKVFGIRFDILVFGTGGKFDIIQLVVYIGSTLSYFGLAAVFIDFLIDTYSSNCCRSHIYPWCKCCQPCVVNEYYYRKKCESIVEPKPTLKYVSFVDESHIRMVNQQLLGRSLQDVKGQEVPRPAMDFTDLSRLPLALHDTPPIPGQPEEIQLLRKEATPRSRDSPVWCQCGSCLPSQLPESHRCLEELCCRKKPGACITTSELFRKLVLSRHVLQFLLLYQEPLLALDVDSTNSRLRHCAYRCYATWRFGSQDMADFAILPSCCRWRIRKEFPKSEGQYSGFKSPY
ASSAY_COMMENT: Ca2+ flux (FLIPR) in 1321N1 cells expressing recombinant human P2X7;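 further: cells loaded with Calcium-4 dye, preincubated with test compound for 30 min, fluorescence change read 180 s after agonist addition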
Assay type: cell-based
CONDITION_NOTES: Ca2+ flux, 250 μM BzATP, human P2X7 1321N1 cells
Each entry below lists one item and its recorded pIC50 value.
Field pIC50 (float): negative decimal logarithm of the concentration in molar.

Answered examples (3):
{"columns": ["COMPOUND", "EXPERIMENTAL_SYSTEM", "REPORTED_RESULT"],
 "data": [
  ["CC(C)n1ccc(-n2nnc3c2CCN(C(=O)c2cccc(C(F)(F)F)c2F)[C@H]3C)n1", "human P2X7 (Homo sapiens (Human))", 6.84],
  ["CC(C)n1ccc(-n2nnc3c2CCN(C(=O)c2ccnc(C(F)(F)F)c2F)[C@H]3C)n1", "human P2X7 (Homo sapiens (Human))", 7.04],
  ["CC1c2n[nH]c(-c3ccc(F)cn3)c2CCN1C(=O)c1cccc(C(F)(F)F)c1Cl (stereo not drawn)", "human P2X7 (Homo sapiens (Human))", 7.15]
]}

Ask: So what does the record say about pIC50 for CC1c2n[nH]c(-c3ccc(F)cc3)c2CCN1C(=O)c1cccc(Cl)c1Cl (stereo not drawn) ?
Result: 7.23

Ask: Also check CC(C)n1ccc(-n2nnc3c2C[C@H](C)N(C(=O)c2ccnc(C(F)(F)F)c2Cl)C3)n1
Result: 7.33

Ask: Also check C[C@H]1Cc2c(nnn2-c2cc[nH]n2)CN1C(=O)c1ccnc(C(F)(F)F)c1Cl (single isomer, unassigned)
Result: 7.84

---

EXPERIMENTAL_SYSTEM: human P2X7 (Homo sapiens (Human))
ASSAY_COMMENT: P2X7 antagonism in human PBMCs (IL-1β release after LPS + Bz-ATP, ELISA)
Format: cell-based
CONDITION_NOTES: human PBMCs, test compound 10 μM
PROPERTY_NAME: PBMC 10 μM (% control)
Supply the numeric figure in % control, leaving out any unit text.

Answered examples (6):
{"columns": ["COMPOUND", "EXPERIMENTAL_SYSTEM", "UNIT_OF_MEASUREMENT", "PBMC 10 μM (% control)"],
 "data": [
  ["Cc1nc(-n2nnc3c2CCN(C(=O)c2cccc(C(F)(F)F)c2Cl)[C@@H]3C)ncc1F (single isomer, unassigned)", "human P2X7 (Homo sapiens (Human))", "% control", 0.9],
  ["CC1CN(C(=O)c2cccc(Cl)c2Cl)Cc2nnn(-c3ccc(F)cc3)c21 (stereo not shown)", "human P2X7 (Homo sapiens (Human))", "% control", "−0.8"],
  ["Cc1cccnc1-n1nnc2c1CCN(C(=O)c1cccc(C(F)(F)F)c1Cl)C2C (stereo not shown)", "human P2X7 (Homo sapiens (Human))", "% control", "−3.5"],
  ["C[C@H]1Cc2c(nnn2-c2cc(F)ccn2)CN1C(=O)c1cccc(C(F)(F)F)c1Cl (single isomer, unassigned)", "human P2X7 (Homo sapiens (Human))", "% control", 0.0],
  ["O=C(c1ccc(Cl)cc1Cl)N1CCc2c(nnn2-c2ncccn2)C1", "human P2X7 (Homo sapiens (Human))", "% control", 7.1],
  ["CCc1ccnc(-n2nnc3c2CCN(C(=O)c2cccc(C(F)(F)F)c2Cl)[C@@H]3C)n1 (single isomer, unassigned)", "human P2X7 (Homo sapiens (Human))", "% control", "−8.1"]
]}

Ask: So what does the record say about PBMC 10 μM (% control) for Cc1ccnc(-n2nnc3c2CCN(C(=O)c2cccc(Cl)c2Cl)[C@@H]3C)n1 (single isomer, unassigned) ?
Result: 112.1

Ask: Also check Cc1cc(-n2nnc3c2CCN(C(=O)c2cc(C(F)(F)F)ccc2Cl)[C@H]3C)ncc1F (single isomer, unassigned)
Result: 83.4

Ask: Also check Cc1cc(C)nc(-n2nnc3c2CCN(C(=O)c2cccc(Cl)c2Cl)C3C)c1 (stereo not shown)
Result: −4.8

Ask: Also check C[C@H]1c2nnn(-c3cnccn3)c2CCN1C(=O)c1cccc(C(F)(F)F)c1Cl (single isomer, unassigned)
Result: −0.3

Ask: Also check Cc1cc(-n2nnc3c2CCN(C(=O)c2ccnc(C(F)(F)F)c2F)[C@H]3C)ncc1F (single isomer, unassigned)
Result: 74.5

Ask: Also check Cc1c(C(=O)N2CCc3c(nnn3-c3cnccn3)C2)cccc1C(F)(F)F
Result: −0.9

Ask: Also check CC1Cc2c(nnn2-c2cnccn2)CN1C(=O)c1cccc(C(F)(F)F)c1Cl (stereo not shown)
Result: −1.0

Ask: Also check Cc1nc2c(n1-c1ccccc1)CCN(C(=O)c1cccc(C(F)(F)F)c1Cl)C2
Result: −9.1

Ask: Also check Cc1nccc(-n2nnc3c2CCN(C(=O)c2ccnc(C(F)(F)F)c2F)C3C)n1 (stereo not shown)
Result: 82.0

Ask: Also check CC1Cc2c(nnn2-c2ncccc2F)CN1C(=O)c1cccc(Cl)c1Cl (stereo not shown)
Result: −0.9
